src = patent US20080306102A1

Biological target: human 11β-HSD2 (Homo sapiens)
Construct: expressed in transfected cells; sonicated cell suspension used as lysate
Sequence (P80365 whole entry): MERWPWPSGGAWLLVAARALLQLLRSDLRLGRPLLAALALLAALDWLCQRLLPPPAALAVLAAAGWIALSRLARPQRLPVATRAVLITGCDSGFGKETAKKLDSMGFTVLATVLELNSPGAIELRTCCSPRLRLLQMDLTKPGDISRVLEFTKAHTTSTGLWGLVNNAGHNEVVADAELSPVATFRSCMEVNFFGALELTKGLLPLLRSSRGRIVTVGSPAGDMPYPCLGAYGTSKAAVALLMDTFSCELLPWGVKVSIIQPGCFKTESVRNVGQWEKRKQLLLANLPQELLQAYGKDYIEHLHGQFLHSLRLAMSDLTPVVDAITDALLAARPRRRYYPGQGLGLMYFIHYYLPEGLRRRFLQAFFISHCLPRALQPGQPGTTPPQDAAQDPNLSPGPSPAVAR
Assay: Human 11β-HSD2 enzyme inhibitory activity (lysate of stably expressing HEK293 cells, cortisol by competitive ELISA)
Type: biochemical
Conditions: human 11β-HSD2, HEK293 cell lysate, 37° C. 1 hour
Consider the following compounds and their measured IC50 readings.

>>> print(df.to_string())
                                 testsmiles  readoutname  obsvalue
0  O=C(COc1ccccc1Br)N1CCC2(CC1)C(=O)Nc1ccccc12         IC50   > 30 µM

Need IC50 of CN1C(=O)C2(CCN(C(=O)COc3ccccc3C(F)(F)F)CC2)c2ccccc21 , thanks.
> 30 µM

One more compound: O=C(COc1ccccc1I)N1CCC2(CC1)C(=O)Nc1ccccc12
> 30 µM
